Provenance of the data: the Human Domainome abundance scans (Beltran et al. 2025)

Exercise: state measured abundance fitness for each of the variants provided.
B1: Homeobox protein cut-like 2, residues 895 to 963; numbered along this chain, O14529 (parent)
chain: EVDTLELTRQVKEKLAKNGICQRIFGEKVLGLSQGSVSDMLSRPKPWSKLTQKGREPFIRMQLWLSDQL

- Variants of: B1
- test-protocol: abundance fitness (aPCA) (normalised: wild type 0, dead -1); higher = more abundant; growth selection in yeast, the domain comes from the species named
- experimental-context: Homo sapiens

L5S ... -0.231

Give me abundance fitness for each of these variants, listed below.
1. V2G
2. F58S
3. D3M
4. L41Q

Completion:
1: -0.001; 2: -1.11; 3: -0.163; 4: -0.303
